Test: Efflux ratio of apparent permeability in MDCK-MDR1 cells
Type: ADME, cell-based, Canis lupus familiaris
Conditions: dog
EXPERIMENTAL_ENDPOINT: efflux ratio
Enter a number only.

// efflux ratio value for `CO[C@@H]1[C@H](O)CN(c2nccc(Nc3cc4c(C(C)C)ccc(N5C[C@H](CS(C)(=O)=O)[C@H]5C)c4cn3)n2)CC1(F)F` : 2

Form field efflux ratio, entry `CC(C)c1ccc(N2C[C@H](CS(C)(=O)=O)[C@H]2C)c2cnc(Nc3ccnc(N4CC[C@@](C)(O)[C@@H](F)C4)n3)cc12` : 3

// recorded efflux ratio for `CC[C@]1(F)CN(c2nccc(Nc3cc4c(C(C)C)ccc(N5C[C@H](CS(C)(=O)=O)[C@H]5C)c4cn3)n2)CC[C@H]1O` : 4

Sure, the documented efflux ratio for `CC(C)c1cnc(N2C[C@H](CS(C)(=O)=O)[C@H]2C)c2cnc(Nc3ccnc(N4CC[C@@H](O)[C@@](C)(F)C4)n3)cc12` is 16

====

Target: Epidermal growth factor receptor (Homo sapiens, UniProt P00533, L858R/T790M)
Sequence (P00533 25-1210 T790M/L858R limits assumed): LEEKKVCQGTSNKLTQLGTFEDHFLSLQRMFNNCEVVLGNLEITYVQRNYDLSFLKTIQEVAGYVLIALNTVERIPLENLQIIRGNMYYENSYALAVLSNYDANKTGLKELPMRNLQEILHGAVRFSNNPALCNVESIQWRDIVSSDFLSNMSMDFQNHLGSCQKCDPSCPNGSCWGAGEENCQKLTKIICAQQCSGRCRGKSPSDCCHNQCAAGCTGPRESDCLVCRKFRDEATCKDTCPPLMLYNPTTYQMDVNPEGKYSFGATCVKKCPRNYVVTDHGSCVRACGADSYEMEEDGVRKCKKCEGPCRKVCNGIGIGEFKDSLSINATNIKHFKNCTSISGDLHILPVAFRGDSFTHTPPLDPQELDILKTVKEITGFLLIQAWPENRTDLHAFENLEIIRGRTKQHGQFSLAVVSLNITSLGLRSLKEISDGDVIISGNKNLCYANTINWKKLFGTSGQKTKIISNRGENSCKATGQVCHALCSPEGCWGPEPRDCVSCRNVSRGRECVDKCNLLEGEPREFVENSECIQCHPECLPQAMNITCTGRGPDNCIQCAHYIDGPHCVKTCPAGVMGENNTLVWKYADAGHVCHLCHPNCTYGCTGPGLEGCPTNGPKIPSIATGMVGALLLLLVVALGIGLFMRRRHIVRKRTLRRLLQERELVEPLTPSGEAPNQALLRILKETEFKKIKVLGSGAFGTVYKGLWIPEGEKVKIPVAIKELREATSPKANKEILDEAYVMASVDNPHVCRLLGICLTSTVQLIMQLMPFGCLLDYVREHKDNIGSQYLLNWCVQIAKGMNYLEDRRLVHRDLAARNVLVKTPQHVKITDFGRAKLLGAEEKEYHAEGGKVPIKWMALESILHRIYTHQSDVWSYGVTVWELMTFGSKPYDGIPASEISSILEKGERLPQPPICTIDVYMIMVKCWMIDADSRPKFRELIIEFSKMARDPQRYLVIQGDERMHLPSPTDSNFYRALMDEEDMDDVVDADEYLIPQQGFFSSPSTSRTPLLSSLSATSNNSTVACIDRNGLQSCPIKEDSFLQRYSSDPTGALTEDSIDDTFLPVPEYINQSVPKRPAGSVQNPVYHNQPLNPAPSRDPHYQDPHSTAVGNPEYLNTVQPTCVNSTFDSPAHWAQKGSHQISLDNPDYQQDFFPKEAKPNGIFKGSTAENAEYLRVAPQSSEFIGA
Test: Inhibition of N-terminal GST tagged recombinant human EGFR L858R/T790M (669 to end residues) double mutant expressed in baculovirus infected Sf9 insect cells expression system using 5-FAM-EEPLYINSFPAKKK-CONH peptide as substrate preincubated for 10 mins followed by peptide substrate addition in presence of ATP
pIC50: −log10 of the molar value.
Label rule, in plain words: pIC50 of 9 and up is T, under 9 is F.

In plain terms: is recorded pIC50 at least 9 for `CC(C)c1ccc(N2C[C@H](O)[C@H]2C)c2cnc(Nc3ccnc(N4CC[C@@H](O)[C@@](C)(F)C4)n3)cc12` ?
T

Can `CC(C)c1ncc(N2CC[C@H]2C)c2cnc(Nc3ccnc(N4CC[C@@H](O)[C@@](C)(F)C4)n3)cc12` be said to have pIC50 at or above 9?
F

Test whether the molecule `CC(C)c1nnc(N2CC[C@H]2C)c2cnc(Nc3ccnc(N4CC[C@@H](O)[C@@](C)(F)C4)n3)cc12` records pIC50 of 9 or higher.
F

Please indicate if the recorded pIC50 for `COC1CN(c2ncc(C(C)C)c3cc(Nc4ccnc(N5CC[C@@H](O)[C@@](C)(F)C5)n4)ncc23)C1` meets or exceeds 9.
F

// inclusive: pIC50 at least 9? input: `CC(C)c1cnc(N2CC[C@H]2C)c2cnc(Nc3ccnc(N4CC[C@@H](O)[C@@](C)(F)C4)n3)cc12`
T

Test whether the molecule `CC(C)c1cnc(N2CC(O)C2)c2cnc(Nc3ccnc(N4CC[C@@H](O)[C@@](C)(F)C4)n3)cc12` records pIC50 of 9 or higher.
F

pIC50 >= 9 for `CC(C)c1cnc(N2CCC2)c2cnc(Nc3ccnc(N4CC[C@@H](O)[C@@](C)(F)C4)n3)cc12` ?
F

Hello, I need to know if `CNC(=O)c1cnc(Nc2ccnc(N3CCC(O)CC3)n2)cc1NC(C)C` has measured pIC50 not below 9. Thanks!
F

Record `COCC1CN(c2ncc(C(C)C)c3cc(Nc4ccnc(N5CC[C@@H](O)[C@@](C)(F)C5)n4)ncc23)C1` ; criterion: pIC50 no lower than 9. Met?
F

Determine whether measured pIC50 meets or exceeds 9 for `CC(C)c1cnc(N2C[C@H](CS(C)(=O)=O)[C@H]2C)c2cnc(Nc3ccnc(N4CC[C@@H](O)[C@@](C)(F)C4)n3)cc12`
T

Is reported pIC50 greater than or equal to 9 here: `CC(C)c1ccc(N2C[C@H](CS(C)(=O)=O)[C@H]2C)c2cnc(Nc3ccnc(N4CC[C@@](C)(O)[C@@H](F)C4)n3)cc12`
T

State whether the measured pIC50 reaches 9, counting equality as reaching it, for `CC(C)c1cnc(N2CC[C@@H]2C)c2cnc(Nc3ccnc(N4CC[C@@H](O)[C@@](C)(F)C4)n3)cc12`
F

Quick check, pIC50 >= 9? `CC[C@]1(F)CN(c2nccc(Nc3cc4c(C(C)C)ccc(N5C[C@H](CS(C)(=O)=O)[C@H]5C)c4cn3)n2)CC[C@H]1O`
T

Hi, just wondering whether `CNC(=O)c1cnc(Nc2ccnc(N3CC[C@@H](O)[C@@H](F)C3)n2)cc1NC(C)C` shows pIC50 of 9 or higher.
F

State whether the measured pIC50 reaches 9, counting equality as reaching it, for `CNc1ncc(C(C)C)c2cc(Nc3ccnc(N4CC[C@@H](O)[C@@H](F)C4)n3)ncc12`
F
